- Tested on: HT29 colon
- methodNotes: NCI tumour cell line growth inhibition, 48 h; in the data active = GI50 below about 0.43 µM; inactive = the rest
Labels: class 1 (active), class 0 (inactive)

{"compound": "COC(=O)c1ccc2nc(-c3cc4ccccc4n3C)n(CCCCOc3cc4c(cc3OC)C(=O)N3CCC[C@H]3C=N4)c2c1", "systemName": "HT29 colon", "qualitativeLabel": "class 0"}
{"compound": "O=C1Nc2ccccc2/C1=C\\c1c(-c2ccccc2)nc2sccn12", "systemName": "HT29 colon", "qualitativeLabel": "class 0"}
{"compound": "COc1cc2c3c(n(CCCN4CCNCC4)c(=O)c2cc1OC)-c1cc2c(cc1C3=O)OCO2", "systemName": "HT29 colon", "qualitativeLabel": "class 0"}
{"compound": "O=C(CN1CCN(Cc2ccccc2Cl)CC1)NC1CC(=O)c2c(Br)sc(Br)c21 (stereo not drawn)", "systemName": "HT29 colon", "qualitativeLabel": "class 0"}
{"compound": "CN1CCN(C(=O)[C@@]2(C)CC[C@]3(C)CC[C@]4(C)C(=CC[C@@H]5[C@@]6(C)CCC(=O)NC(C)(C)[C@@H]6CC[C@]54C)[C@@H]3C2)CC1", "systemName": "HT29 colon", "qualitativeLabel": "class 0"}
{"compound": "O=C(/C=C/C12c3ccccc3C(c3ccccc31)C1C(=O)N(c3ccc(Cl)cc3)C(=O)C12)c1ccccn1 (stereo not drawn)", "systemName": "HT29 colon", "qualitativeLabel": "class 1"}
{"compound": "CNC(=O)c1nn(C)c2c1C(C)(C)Cc1cnc(Nc3cccc(N4CCN(C)CC4)c3)nc1-2", "systemName": "HT29 colon", "qualitativeLabel": "class 0"}
{"compound": "Cc1ccc(C)c2c1C(=O)N(c1ccc(F)cc1F)C2=O", "systemName": "HT29 colon", "qualitativeLabel": "class 0"}
{"compound": "O=C(Cn1c(C(=O)c2ccc(Cl)cc2)nc(-c2ccc(Cl)cc2)c1-c1ccc(Cl)cc1)c1ccccc1", "systemName": "HT29 colon", "qualitativeLabel": "class 0"}
{"compound": "Cc1ccc([P+](Cc2ccccc2)(c2ccccc2)c2ccccc2)cc1", "systemName": "HT29 colon", "qualitativeLabel": "class 0"}
{"compound": "CN1CC=C(c2cc(NC(=O)Nc3ccc(Oc4ccnc(NC(=O)C5CC5)c4)c(F)c3)cc(C(F)(F)F)c2)CC1", "systemName": "HT29 colon", "qualitativeLabel": "class 1"}
{"compound": "N#Cc1c(NCc2ccccc2)nc(NCc2ccccc2)c(C#N)c1-c1ccc(Cl)cc1", "systemName": "HT29 colon", "qualitativeLabel": "class 0"}
{"compound": "NC(=O)c1cccc2c(N[C@H](CN3CCC3)c3ccc(Cl)c(C(F)(F)F)c3)ncnc12", "systemName": "HT29 colon", "qualitativeLabel": "class 0"}
